experiment: Pharmacokinetics study of KDG-0320-0A in male CD1 mice (Example 1); type: in vivo; conditions: mouse, plasma, 50 mg/kg PO
Structures can show the parent of a compound that is named as a salt.
Observable: Cmax
The answer should read as a number with its unit following.

GET /value?item= Cc1n[nH]c2c1C(c1cc(C#C[C@H]3CC[C@H](NC(=O)OC(C)(C)C)CC3)cc(CO)c1)(C(C)C)C(C#N)=C(N)O2 (stereo partly shown) [KDG-0320, hydrochloride] &field=Cmax returns 605 ng/mL

---

assay: Pharmacokinetics study of KDG-0388 in male CD1 mice (Example 2); type: in vivo; settings: mouse; male CD1 mice, plasma, 200 mg/kg PO, 4 h; read-out: Concentration PO_Mean
Observable: concentration at 4 h (ng/mL)
All answers are understood in ng/mL, so give the number only.

GET /value?item= Cc1n[nH]c2c1C(c1cc(C#C[C@H]3C[C@@H](NC(=O)OC(C)(C)C)C3)cc(CO)c1)(C(C)C)C(C#N)=C(N)O2 (stereo partly shown) &field=concentration at 4 h returns 417

---

test: Pharmacokinetics study of KDG-0271 in male CD1 mice (Example 3); type: in vivo; details: mouse; male CD1 mice, plasma, 200 mg/kg IP, 0.25 h; read-out: Concentration IP_Mean
Observable: concentration at 0.25 h

GET /value?item= Cc1n[nH]c2c1C(c1cc(C#CC3CN(C(=O)OC(C)(C)C)C3)cc(CO)c1)(C(C)C)C(C#N)=C(N)O2 (stereo not shown) [KDG-0271] &field=concentration at 0.25 h returns 2.16 µg/mL

---

test: Pharmacokinetics study of KDG-0320-0A in male CD1 mice (Example 1); format: in vivo; settings: mouse, plasma, 50 mg/kg PO, 2 h, read-out: Concentration PO_Mean
Where a name gives a salt, the structure may show the parent alone.
Observable: concentration at 2 h (ng/mL)
All answers are understood in ng/mL, so give the number only.

GET /value?item= Cc1n[nH]c2c1C(c1cc(C#C[C@H]3CC[C@H](NC(=O)OC(C)(C)C)CC3)cc(CO)c1)(C(C)C)C(C#N)=C(N)O2 (stereo partly shown) [KDG-0320, hydrochloride] &field=concentration at 2 h returns 411

---

assay: Pharmacokinetics study of KDG-0271 in male CD1 mice (Example 3); format: in vivo; conditions: mouse, plasma; male CD1 mice, 200 mg/kg PO
Observable: Tmax

GET /value?item= Cc1n[nH]c2c1C(c1cc(C#CC3CN(C(=O)OC(C)(C)C)C3)cc(CO)c1)(C(C)C)C(C#N)=C(N)O2 (stereo not shown) &field=Tmax returns 1 h

---

system: HCT116; experiment: HCT116 growth inhibition assay; type: cell-based; settings: without formate
Observable: IC50

Before answering, review these 6 worked examples.
[
  {
    "Molecule": "Cc1n[nH]c2c1C(c1cc(C#CC3CNC3)cc(CO)c1)(C(C)C)C(C#N)=C(N)O2 (stereo not shown) [KDG-0271-200]",
    "Measurement target": "HCT116",
    "IC50": "D″"
  },
  {
    "Molecule": "Cc1n[nH]c2c1C(c1cc(C#CC3CCCN3C(=O)OC(C)(C)C)cc(CO)c1)(C(C)C)C(C#N)=C(N)O2 (stereo not shown) [KDG-0280]",
    "Measurement target": "HCT116",
    "IC50": "B″"
  },
  {
    "Molecule": "CC(=O)OCC1CC(C#Cc2cc(CO)cc(C3(C(C)C)C(C#N)=C(N)Oc4[nH]nc(C)c43)c2)C1 (stereo not shown) [KDG-0266]",
    "Measurement target": "HCT116",
    "IC50": "B″"
  },
  {
    "Molecule": "Cc1n[nH]c2c1C(c1cc(C#C[C@H]3C[C@H](NC(=O)OC(C)(C)C)C3)cc(CO)c1)(C(C)C)C(C#N)=C(N)O2 (stereo partly shown) [KDG-0385]",
    "Measurement target": "HCT116",
    "IC50": "B″"
  },
  {
    "Molecule": "Cc1n[nH]c2c1C(c1cc(C#C[C@H]3C[C@@H](NC(=O)OCC(C)(C)C)C3)cc(CO)c1)(C(C)C)C(C#N)=C(N)O2 (stereo partly shown) [KDG-0524]",
    "Measurement target": "HCT116",
    "IC50": "B″"
  },
  {
    "Molecule": "Cc1n[nH]c2c1C(c1cc(C#C[C@H]3C[C@@H](NC(=O)CN(C)C)C3)cc(CO)c1)(C(C)C)C(C#N)=C(N)O2 (stereo partly shown) [KDG-0554]",
    "Measurement target": "HCT116",
    "IC50": "C″"
  }
]

// switching to the query molecule
# lookup: Cc1n[nH]c2c1C(c1cc(C#C[C@H]3C[C@@H](NC(=O)NC(C)(C)C)C3)cc(CO)c1)(C(C)C)C(C#N)=C(N)O2 (stereo partly shown) [KDG-0523] on HCT116, IC50 = B″

Origin of the recorded values: patent US20230382920A1
